Biological target: kinase domain protein of RC kinase (Homo sapiens)
Assay: Enzymatic assay for kinase inhibitory activity (Crebtide substrate, LANCE readout), kinase domain protein
Format: biochemical
Conditions: test compound 1 μM, ATP 1 μM, Crebtide 50 nM
Quantity measured: inhibition at 1 µM

Examples from the recorded data:
{"Smiles repr": "NC(=O)c1c(Nc2ccc(N3CCOCC3)c(Cl)c2)n[nH]c1NCc1ccc(O)cc1", "Assayed system": "kinase domain protein of RC kinase (Homo sapiens)", "inhibition at 1 µM": "≥ 50%"}
{"Smiles repr": "NC(=O)c1c(Nc2cccc(Cl)c2)n[nH]c1NCc1ccc([N+](=O)[O-])cc1", "Assayed system": "kinase domain protein of RC kinase (Homo sapiens)", "inhibition at 1 µM": "5 to 20%"}
{"Smiles repr": "CN(C)c1ccc(Nc2n[nH]c(NCc3ccc(O)cc3)c2C(N)=O)cc1", "Assayed system": "kinase domain protein of RC kinase (Homo sapiens)", "inhibition at 1 µM": "≥ 50%"}

Shift focus to the following entry.
Please supply the value of reported inhibition at 1 µM for the item COc1ccc(Nc2n[nH]c(NCc3ccc(O)cc3)c2C(N)=O)cc1
≥ 50%

###

# melting point values compiled below

Examples from the recorded data:
{"Molecule": "NC(=O)c1c(Nc2ccc(N3CCOCC3)c(Cl)c2)n[nH]c1NCc1ccc(O)cc1 [Compound D75]", "Value measured": "162 to 168 °C"}
{"Molecule": "CCOC(=O)c1cccc(Nc2n[nH]c(NCc3ccc(O)cc3)c2C(N)=O)c1 [Compound D67]", "Value measured": "132 to 136 °C"}
{"Molecule": "NC(=O)c1c(Nc2cccc(Cl)c2)n[nH]c1NCc1ccc[nH]1 [Compound D59]", "Value measured": "193 to 198 °C"}
{"Molecule": "NC(=O)c1c(Nc2ccc(NC(=O)c3sc4cc(F)ccc4c3Cl)cc2)n[nH]c1NCc1ccc(O)cc1 [Compound D141]", "Value measured": "228 to 232 °C"}
{"Molecule": "N#Cc1c(Nc2cccc(Cl)c2)n[nH]c1NCc1ccc(O)cc1 [Compound C31]", "Value measured": "205 to 208 °C"}

Please supply the value of reported melting point for the item Cc1ccc(Nc2n[nH]c(NCc3ccc(O)cc3)c2C(N)=O)cc1 [Compound D61]
169 to 174 °C

Please supply the value of reported melting point for the item NC(=O)c1c(Nc2ccc(-c3ccccn3)cc2)n[nH]c1NCc1ccc(O)cc1 [Compound D109]
217 to 221 °C

Please supply the value of reported melting point for the item NC(=O)c1c(Nc2ccc(Br)c(Cl)c2)n[nH]c1NCc1ccc(O)cc1 [Compound D160]
199 to 204 °C

###

Quantity measured: melting point

{"Smiles repr": "NC(=O)c1c(Nc2cccnc2)n[nH]c1NCc1ccc(O)cc1", "melting point": "229 to 233 °C"}
{"Smiles repr": "NC(=O)c1c(Nc2ccc(-n3ccnc3)cc2)n[nH]c1NCc1ccc(O)cc1", "melting point": "228 to 231 °C"}
{"Smiles repr": "CC(C)N1CCN(c2ccc(Nc3n[nH]c(NCc4ccc(O)cc4)c3C(N)=O)cc2)CC1", "melting point": "210 to 220 °C"}
{"Smiles repr": "NC(=O)c1c(Nc2cccnc2)n[nH]c1NCc1ccc[nH]1", "melting point": "201 to 206 °C"}
{"Smiles repr": "COc1cccc(CNc2[nH]nc(Nc3cccnc3)c2C(N)=O)c1", "melting point": "226 to 230 °C"}
{"Smiles repr": "COc1ccc(Nc2n[nH]c(NCc3ccc(O)cc3)c2C(N)=O)cc1", "melting point": "176 to 180 °C"}
{"Smiles repr": "NC(=O)c1c(Nc2ccc(N3CCOCC3)c(F)c2)n[nH]c1NCc1ccc(O)cc1", "melting point": "208 to 211 °C"}
{"Smiles repr": "NC(=O)c1c(Nc2ccc(Cl)c(Cl)c2)n[nH]c1NCc1ccc(O)cc1", "melting point": "203 to 209 °C"}

Shift focus to the following entry.
Please supply the value of reported melting point for the item COc1ccc(CNc2[nH]nc(Nc3cccc(Cl)c3)c2C#N)cc1F
97 to 105 °C

###

# melting point values compiled below

{"Molecule": "NC(=O)c1c(Nc2cccnc2)n[nH]c1NCc1cccc(O)c1", "melting point": "208 to 212 °C"}
{"Molecule": "N#CCc1ccc(Nc2n[nH]c(NCc3ccc(O)cc3)c2C(N)=O)cc1", "melting point": "200 to 203 °C"}
{"Molecule": "NC(=O)c1c(Nc2cccc(Cl)c2)n[nH]c1NCc1ccc(Oc2ccc(C(F)(F)F)cn2)cc1", "melting point": "205 to 211 °C"}
{"Molecule": "N#Cc1c(Nc2cccc(Cl)c2)n[nH]c1NCc1ccc(Oc2ccc(C(F)(F)F)cn2)cc1 [Compound C32]", "melting point": "184 to 194 °C"}
{"Molecule": "NC(=O)c1c(Nc2ccc(F)cc2)n[nH]c1NCc1ccc(O)cc1", "melting point": "204 to 207 °C"}

Please supply the value of reported melting point for the item NC(=O)c1c(Nc2ccc(S(N)(=O)=O)cc2)n[nH]c1NCc1ccc(O)cc1
270 to 275 °C

Please supply the value of reported melting point for the item N#Cc1c(Nc2cccc(Cl)c2)n[nH]c1NCc1ccc(Cl)cc1O
172 to 180 °C

Please supply the value of reported melting point for the item NC(=O)c1c(Nc2ccc(NC(=O)c3ccc(F)cc3)cc2)n[nH]c1NCc1ccc(O)cc1
227 to 231 °C

###

# melting point values compiled below

Examples from the recorded data:
{"Molecule": "NC(=O)c1c(Nc2ccccc2)n[nH]c1NCc1ccc(O)cc1 [Compound D2]", "melting point": "214 to 216 °C"}
{"Molecule": "NC(=O)c1c(Nc2cccc(Cl)c2)n[nH]c1NCc1ccco1", "melting point": "214 to 220 °C"}
{"Molecule": "NC(=O)c1c(Nc2ccc(Cl)nc2)n[nH]c1NCc1ccc(O)cc1", "melting point": "221 to 225 °C"}
{"Molecule": "COc1ccc(CNc2[nH]nc(Nc3cccc(Cl)c3)c2C(N)=O)c(OC)c1OC", "melting point": "196 to 200 °C"}

Please supply the value of reported melting point for the item NC(=O)c1c(Nc2ccc3[nH]ncc3c2)n[nH]c1NCc1ccc(O)cc1
250 to 260 °C

Please supply the value of reported melting point for the item COc1cc(CNc2[nH]nc(NCc3ccc(O)cc3)c2C(N)=O)ccc1F
180 to 184 °C

Please supply the value of reported melting point for the item NC(=O)c1c(NCc2c(F)cccc2Cl)n[nH]c1NCc1ccc(O)cc1
215 to 218 °C

Please supply the value of reported melting point for the item NC(=O)c1c(NCc2ccc(Cl)c(F)c2)n[nH]c1NCc1ccc(O)cc1
204 to 207 °C

Please supply the value of reported melting point for the item N#Cc1c(Nc2cccc(Cl)c2)n[nH]c1NCc1ccc(Oc2ccc(C(F)(F)F)cn2)cc1 [Compound C2]
62 to 72 °C

###

Quantity measured: melting point

{"Smiles repr": "CC(C)(C)c1ccc(Nc2n[nH]c(NCc3ccc(O)cc3)c2C(N)=O)cc1", "melting point": "218 to 222 °C"}
{"Smiles repr": "COc1ccc(CNc2[nH]nc(Nc3cccnc3)c2C(N)=O)cc1", "melting point": "218 to 222 °C"}
{"Smiles repr": "COc1cc(OC)c(OC)cc1CNc1[nH]nc(Nc2cccnc2)c1C(N)=O", "melting point": "197 to 202 °C"}
{"Smiles repr": "NC(=O)c1c(Nc2ccc(NC(=O)c3cccc(F)c3)cc2)n[nH]c1NCc1ccc(O)cc1", "melting point": "216 to 220 °C"}
{"Smiles repr": "NC(=O)c1c(Nc2cccc(Cl)c2)n[nH]c1NCc1ccc(Oc2ncccn2)cc1", "melting point": "193 to 199 °C"}

Please supply the value of reported melting point for the item CCOc1ccc2ccccc2c1CNc1[nH]nc(Nc2cccnc2)c1C(N)=O
231 to 236 °C

Please supply the value of reported melting point for the item NC(=O)c1c(Nc2cccnc2)n[nH]c1NCc1ccc(Cl)cc1
228 to 231 °C

Please supply the value of reported melting point for the item CC(C)c1ccc(Nc2n[nH]c(NCc3ccc(O)cc3)c2C(N)=O)cc1
200 to 204 °C

###

# inhibition at 1 µM values compiled below
Molecular target: kinase domain protein of RC kinase (Homo sapiens, UniProt Q56UN5)
Sequence (Q56UN5 1061-1324 limits assumed): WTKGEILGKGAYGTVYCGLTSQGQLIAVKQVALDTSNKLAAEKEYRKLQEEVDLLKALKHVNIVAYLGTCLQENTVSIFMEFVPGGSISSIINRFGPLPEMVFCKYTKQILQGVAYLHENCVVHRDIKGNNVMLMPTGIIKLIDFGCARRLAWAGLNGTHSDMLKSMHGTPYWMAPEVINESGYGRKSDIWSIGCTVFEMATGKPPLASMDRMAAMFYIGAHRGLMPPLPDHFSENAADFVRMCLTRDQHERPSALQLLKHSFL
Experiment: Enzymatic assay for kinase inhibitory activity (Crebtide substrate, LANCE readout), kinase domain protein
Format: biochemical
Settings: test compound 1 μM, ATP 1 μM, Crebtide 50 nM
Experimental: Solutions of a test compound, Crebtide (a substrate), a kinase, and ATP were prepared using 1×MAPK Buffer (50 mM HEPES, 1 mM EGTA, […], 10 mM MgCl2, 2 mM DTT, and 0.01% Tween 20). […] After the incubation, the anti-Crebtide (5 μL) and EDTA (5 μL) were added to each well to reach their final concentrations of […] and 10 mM, respectively. […] The plates were then read at 665 nm and 615 nm using Perkin Elmer Lance machine. […]

Give reported inhibition at 1 µM for NC(=O)c1c(Nc2ccc(F)cc2)n[nH]c1NCc1ccc(O)cc1 [Compound D163] (kinase domain protein of RC kinase (Homo sapiens, UniProt Q56UN5))
≥ 50%

Give reported inhibition at 1 µM for CN1CCN(c2ccc(CNc3[nH]nc(Nc4cccc(Cl)c4)c3C#N)cc2)CC1 [Compound C13] (kinase domain protein of RC kinase (Homo sapiens, UniProt Q56UN5))
≤ 5%
